The compounds listed here are annotated with their ASPARTATE AMINOTRANSFERASE.
organism: Rattus norvegicus; assay: DrugMatrix - Regimen: Daily Repeat; type: toxicity, organism-based, Sprague-Dawley; parameters: regimen Daily Repeat, gender Male, age 6-8 weeks; conditions: in vivo, po, 1500 mg/kg, 72 h, tissue Plasma, route oral GAVAGE, dose level High, time 3 day, vehicle .5 % CMC
experimental.readout: ASPARTATE AMINOTRANSFERASE

| compound | endpoint.result |
| --- | --- |
| O=C(N[C@H](CO)[C@H](O)c1ccc([N+](=O)[O-])cc1)C(Cl)Cl | 90.33 u/L |
| CNC(=C[N+](=O)[O-])NCCSCc1ccc(CN(C)C)o1 | 86.67 u/L |
| Cc1cc(=O)n(-c2ccccc2)n1C [ANTIPYRINE] | 85 u/L |
| NC(=O)c1cnccn1 [PYRAZINAMIDE] | 85.67 u/L |

###

species on record: Rattus norvegicus; assay: DrugMatrix - Regimen: Daily Repeat; assay type: toxicity, organism-based, Sprague-Dawley; design: regimen Daily Repeat, gender Male, age 6-8 weeks; conditions: in vivo, po, 1500 mg/kg, 72 h, tissue Plasma, route oral GAVAGE, dose level High, time 3 day, vehicle .5 % CMC

| compound | output.unit | TOTAL BILIRUBIN |
| --- | --- | --- |
| Cc1cc(=O)n(-c2ccccc2)n1C [ANTIPYRINE] | mg/dL | 0.2 |
| CNC(=C[N+](=O)[O-])NCCSCc1ccc(CN(C)C)o1 [RANITIDINE] | mg/dL | 0.17 |
| O=C(N[C@H](CO)[C@H](O)c1ccc([N+](=O)[O-])cc1)C(Cl)Cl [CHLORAMPHENICOL] | mg/dL | 0.13 |
| NC(=O)c1cnccn1 [PYRAZINAMIDE] | mg/dL | 0.23 |
| Cc1ccc(S(=O)(=O)NC(=O)NN2CC3CCCC3C2)cc1 (configuration not stated) [GLICLAZIDE] | mg/dL | 0.13 |
| CO[C@H]1/C=C/O[C@@]2(C)Oc3c(C)c(O)c4c(c3C2=O)C2=NC3(CCN(CC(C)C)CC3)NC2=C(NC(=O)/C(C)=C\C=C\[C@H](C)[C@H](O)[C@@H](C)[C@@H](O)[C@@H](C)[C@H](OC(C)=O)[C@@H]1C)C4=O [RIFABUTIN] | mg/dL | 0.47 |
| C[C@]1(Cn2ccnn2)[C@H](C(=O)O)N2C(=O)C[C@H]2S1(=O)=O [TAZOBACTAM] | mg/dL | 0.17 |

###

organism: Rattus norvegicus; test: DrugMatrix - Regimen: Daily Repeat; assay type: toxicity, organism-based, Sprague-Dawley; set-up: regimen Daily Repeat, gender Male, age 6-8 weeks; conditions: in vivo, po, 0 mg/kg, 120 h, tissue Plasma, route oral GAVAGE, dose level Control, time 5 day, vehicle .5 % CMC
experimental.readout: PHOSPHORUS (mg/dL)

| molecule | endpoint.result |
| --- | --- |
| N=C(N)NC(=O)c1nc(Cl)c(N)nc1N [AMILORIDE] | 10.03 |
| C[C@]1(Cn2ccnn2)[C@H](C(=O)O)N2C(=O)C[C@H]2S1(=O)=O | 11.48 |
| C[C@](O)(CS(=O)(=O)c1ccc(F)cc1)C(=O)Nc1ccc(C#N)c(C(F)(F)F)c1 [(R)-BICALUTAMIDE] | 11.87 |
| CC[C@@H](CO)NCCN[C@@H](CC)CO | 10.03 |
| CC(=O)CC(c1ccccc1)c1c(O)c2ccccc2oc1=O (stereo not given) | 12.45 |

###

species on record: Rattus norvegicus; assay: DrugMatrix - Regimen: Daily Repeat; format: toxicity, organism-based, Sprague-Dawley; parameters: regimen Daily Repeat, gender Male, age 6-8 weeks; conditions: in vivo, sc, 0.5 mg/kg, 120 h, tissue Blood, route mini-PUMP - SUBCUTANEOUS, dose level High, time 5 day, vehicle 100 % SALINE
experimental.readout: ABSOLUTE EOSINOPHIL (cells/µL)

| molecule | endpoint.result |
| --- | --- |
| CC[C@H](C)[C@H](NC(=O)[C@H](Cc1ccc(O)cc1)NC(=O)[C@@H](NC(=O)[C@H](CCCNC(=N)N)NC(=O)[C@@H](N)CC(=O)O)C(C)C)C(=O)N[C@@H](Cc1cnc[nH]1)C(=O)N1CCC[C@H]1C(=O)N[C@@H](Cc1ccccc1)C(=O)O [ANGIOTENSIN II] | 36.7 |

###

species on record: Rattus norvegicus; test: DrugMatrix - Regimen: Daily Repeat; type: toxicity, organism-based, Sprague-Dawley; set-up: regimen Daily Repeat, gender Male, age 6-8 weeks; conditions: in vivo, po, 1500 mg/kg, 72 h, tissue Plasma, route oral GAVAGE, dose level High, time 3 day, vehicle .5 % CMC

| compound | POTASSIUM |
| --- | --- |
| CNC(=C[N+](=O)[O-])NCCSCc1ccc(CN(C)C)o1 | 7.13 MEQ/L |
| O=C(N[C@H](CO)[C@H](O)c1ccc([N+](=O)[O-])cc1)C(Cl)Cl | 6.53 MEQ/L |
| CO[C@H]1/C=C/O[C@@]2(C)Oc3c(C)c(O)c4c(c3C2=O)C2=NC3(CCN(CC(C)C)CC3)NC2=C(NC(=O)/C(C)=C\C=C\[C@H](C)[C@H](O)[C@@H](C)[C@@H](O)[C@@H](C)[C@H](OC(C)=O)[C@@H]1C)C4=O | 5.97 MEQ/L |
| C[C@]1(Cn2ccnn2)[C@H](C(=O)O)N2C(=O)C[C@H]2S1(=O)=O | 6.83 MEQ/L |
| NC(=O)c1cnccn1 [PYRAZINAMIDE] | 5.73 MEQ/L |
| Cc1cc(=O)n(-c2ccccc2)n1C [ANTIPYRINE] | 6.57 MEQ/L |
| Cc1ccc(S(=O)(=O)NC(=O)NN2CC3CCCC3C2)cc1 (configuration not stated) [GLICLAZIDE] | 6.27 MEQ/L |

###

organism: Rattus norvegicus; assay: DrugMatrix - Regimen: Daily Repeat; type: toxicity, organism-based, Sprague-Dawley; set-up: regimen Daily Repeat, gender Male, age 6-8 weeks; details: in vivo, po, 1500 mg/kg, 120 h, tissue Blood, route oral GAVAGE, dose level High, time 5 day, vehicle .5 % CMC

| compound | NEUTROPHIL [%] |
| --- | --- |
| C[C@]1(Cn2ccnn2)[C@H](C(=O)O)N2C(=O)C[C@H]2S1(=O)=O | 8 |
| CO[C@H]1/C=C/O[C@@]2(C)Oc3c(C)c(O)c4c(c3C2=O)C2=NC3(CCN(CC(C)C)CC3)NC2=C(NC(=O)/C(C)=C\C=C\[C@H](C)[C@H](O)[C@@H](C)[C@@H](O)[C@@H](C)[C@H](OC(C)=O)[C@@H]1C)C4=O | 19 |
| CNC(=C[N+](=O)[O-])NCCSCc1ccc(CN(C)C)o1 | 6.67 |
| Cc1ccc(S(=O)(=O)NC(=O)NN2CC3CCCC3C2)cc1 (configuration not stated) [GLICLAZIDE] | 9.33 |
| O=C(N[C@H](CO)[C@H](O)c1ccc([N+](=O)[O-])cc1)C(Cl)Cl | 7.33 |
| Cc1cc(=O)n(-c2ccccc2)n1C [ANTIPYRINE] | 15 |
| NC(=O)c1cnccn1 [PYRAZINAMIDE] | 9.67 |

###

species on record: Rattus norvegicus; test: DrugMatrix - Regimen: Daily Repeat; format: toxicity, organism-based, Sprague-Dawley; parameters: regimen Daily Repeat, gender Male, age 6-8 weeks; conditions: in vivo, po, 0 mg/kg, 120 h, tissue Plasma, route oral GAVAGE, dose level Control, time 5 day, vehicle .5 % CMC
The compounds listed here are annotated with their CREATININE.
experimental.readout: CREATININE (mg/dL)

| compound | experimental.readout | endpoint.result |
| --- | --- | --- |
| C[C@]1(Cn2ccnn2)[C@H](C(=O)O)N2C(=O)C[C@H]2S1(=O)=O | CREATININE | 0.37 |
| C[C@](O)(CS(=O)(=O)c1ccc(F)cc1)C(=O)Nc1ccc(C#N)c(C(F)(F)F)c1 [(R)-BICALUTAMIDE] | CREATININE | 0.18 |
| CC(C)[C@H]1CC[C@H](C(=O)N[C@H](Cc2ccccc2)C(=O)O)CC1 [NATEGLINIDE] | CREATININE | 0.21 |
| N=C(N)NC(=O)c1nc(Cl)c(N)nc1N [AMILORIDE] | CREATININE | 0.6 |
| CC(=O)CC(c1ccccc1)c1c(O)c2ccccc2oc1=O (stereo not given) | CREATININE | 0.21 |

###

The molecules listed here are annotated with their CREATINE PHOSPHOKINASE.
organism: Rattus norvegicus; assay: DrugMatrix - Regimen: Daily Repeat; assay type: toxicity, organism-based, Sprague-Dawley; set-up: regimen Daily Repeat, gender Male, age 6-8 weeks; conditions: in vivo, po, 0 mg/kg, 72 h, tissue Plasma, route oral GAVAGE, dose level Control, time 3 day, vehicle .5 % CMC
experimental.readout: CREATINE PHOSPHOKINASE (u/L)

| molecule | output.unit | endpoint.result |
| --- | --- | --- |
| CC[C@@H](CO)NCCN[C@@H](CC)CO | u/L | 149.17 |
| CC(=O)CC(c1ccccc1)c1c(O)c2ccccc2oc1=O (stereo unspecified) | u/L | 301 |
| O=[N+]([O-])c1ccccc1 | u/L | 325.67 |
| CN1C(=O)COc2c(C(=O)NC3CN4CCC3CC4)cc(Cl)cc21 (stereo unspecified) | u/L | 467.33 |
| C[C@]1(Cn2ccnn2)[C@H](C(=O)O)N2C(=O)C[C@H]2S1(=O)=O | u/L | 331.5 |
| N=C(N)NC(=O)c1nc(Cl)c(N)nc1N [AMILORIDE] | u/L | 149.17 |
| C[C@](O)(CS(=O)(=O)c1ccc(F)cc1)C(=O)Nc1ccc(C#N)c(C(F)(F)F)c1 [(R)-BICALUTAMIDE] | u/L | 788 |
| OC(CCN1CCCCC1)(c1ccccc1)C1CCCCC1 (stereo unspecified) | u/L | 464.83 |
| CC(C)[C@H]1CC[C@H](C(=O)N[C@H](Cc2ccccc2)C(=O)O)CC1 [NATEGLINIDE] | u/L | 485.67 |
| O=C1CCC(N2C(=O)c3ccccc3C2=O)C(=O)N1 (stereo unspecified) [THALIDOMIDE] | u/L | 123.5 |
| CNC(=C[N+](=O)[O-])NCCSCc1ccc(CN(C)C)o1 | u/L | 258.67 |

Data origin: ChEMBL document CHEMBL3885881
